Assay: mn = molality of the nth substance listed, in mol/kg
Conditions: 308.15 K; 100 kPa; Liquid; Frequency=3 MHz; Sing-around technique in a fixed-path interferometer; m2 = 0
metric_name: speed of sound (m/s)

[[record]]
compound = "CN(C)C=O [dimethylformamide] + [Ba+2].[O-][Cl+3]([O-])([O-])[O-].[O-][Cl+3]([O-])([O-])[O-]"
measure_unit = "m/s"
experimental_value = 1418.5

[[record]]
compound = "CN(C)C=O [dimethylformamide] + O=S(=O)([O-])C(F)(F)F.O=S(=O)([O-])C(F)(F)F.[Ca+2]"
measure_unit = "m/s"
experimental_value = 1418.5

[[record]]
compound = "CC(=O)N(C)C [N,N-dimethylethanamide] + O=S(=O)([O-])C(F)(F)F.O=S(=O)([O-])C(F)(F)F.[Mg+2]"
measure_unit = "m/s"
experimental_value = 1416.2

[[record]]
compound = "CN(C)C=O [dimethylformamide] + O=S(=O)([O-])C(F)(F)F.O=S(=O)([O-])C(F)(F)F.[Sr+2]"
measure_unit = "m/s"
experimental_value = 1418.6

[[record]]
compound = "CN(C)C=O [dimethylformamide] + O=S(=O)([O-])C(F)(F)F.O=S(=O)([O-])C(F)(F)F.[Mg+2]"
measure_unit = "m/s"
experimental_value = 1418.5

[[record]]
compound = "CC(=O)N(C)C [N,N-dimethylethanamide] + O=S(=O)([O-])C(F)(F)F.O=S(=O)([O-])C(F)(F)F.[Sr+2]"
measure_unit = "m/s"
experimental_value = 1416.1

[[record]]
compound = "CC(=O)N(C)C [N,N-dimethylethanamide] + O=S(=O)([O-])C(F)(F)F.O=S(=O)([O-])C(F)(F)F.[Ca+2]"
measure_unit = "m/s"
experimental_value = 1416.1

[[record]]
compound = "CC(=O)N(C)C [N,N-dimethylethanamide] + [Ba+2].[O-][Cl+3]([O-])([O-])[O-].[O-][Cl+3]([O-])([O-])[O-]"
measure_unit = "m/s"
experimental_value = 1416.2


---

Experiment: mn = molality of the nth substance listed, in mol/kg
Details: 313.15 K; 100 kPa; Liquid; Vibrating tube method; m2 = 0
// reported mass density for each item listed
metric_name: mass density (kg/m3)

[[record]]
molecule = "CC(=O)N(C)C [N,N-dimethylethanamide] + O=S(=O)([O-])C(F)(F)F.O=S(=O)([O-])C(F)(F)F.[Ca+2]"
metric_name = "mass density"
experimental_value = 922.429

[[record]]
molecule = "CN(C)C=O [dimethylformamide] + [Ba+2].[O-][Cl+3]([O-])([O-])[O-].[O-][Cl+3]([O-])([O-])[O-]"
metric_name = "mass density"
experimental_value = 929.56

[[record]]
molecule = "CN(C)C=O [dimethylformamide] + O=S(=O)([O-])C(F)(F)F.O=S(=O)([O-])C(F)(F)F.[Mg+2]"
metric_name = "mass density"
experimental_value = 929.543

[[record]]
molecule = "CC(=O)N(C)C [N,N-dimethylethanamide] + O=S(=O)([O-])C(F)(F)F.O=S(=O)([O-])C(F)(F)F.[Sr+2]"
metric_name = "mass density"
experimental_value = 922.423


---

Experiment: mn = molality of the nth substance listed, in mol/kg
Conditions: 298.15 K; 100 kPa; Liquid; Vibrating tube method; m2 = 0
metric_name: mass density (kg/m3)

[[record]]
molecule = "CC(=O)N(C)C [N,N-dimethylethanamide] + O=S(=O)([O-])C(F)(F)F.O=S(=O)([O-])C(F)(F)F.[Mg+2]"
measure_unit = "kg/m3"
experimental_value = 936.279

[[record]]
molecule = "CN(C)C=O [dimethylformamide] + O=S(=O)([O-])C(F)(F)F.O=S(=O)([O-])C(F)(F)F.[Sr+2]"
measure_unit = "kg/m3"
experimental_value = 943.913

[[record]]
molecule = "CN(C)C=O [dimethylformamide] + O=S(=O)([O-])C(F)(F)F.O=S(=O)([O-])C(F)(F)F.[Mg+2]"
measure_unit = "kg/m3"
experimental_value = 943.905

[[record]]
molecule = "CC(=O)N(C)C [N,N-dimethylethanamide] + O=S(=O)([O-])C(F)(F)F.O=S(=O)([O-])C(F)(F)F.[Sr+2]"
measure_unit = "kg/m3"
experimental_value = 936.29


---

Experiment: mn = molality of the nth substance listed, in mol/kg
Details: 318.15 K; 100 kPa; Liquid; Frequency=3 MHz; Sing-around technique in a fixed-path interferometer; m2 = 0
Recorded speed of sound values for a group of compounds are listed next.
metric_name: speed of sound (m/s)

[[record]]
compound = "CC(=O)N(C)C [N,N-dimethylethanamide] + O=S(=O)([O-])C(F)(F)F.O=S(=O)([O-])C(F)(F)F.[Sr+2]"
measure_unit = "m/s"
experimental_value = 1376.9

[[record]]
compound = "CN(C)C=O [dimethylformamide] + O=S(=O)([O-])C(F)(F)F.O=S(=O)([O-])C(F)(F)F.[Mg+2]"
measure_unit = "m/s"
experimental_value = 1380

[[record]]
compound = "CN(C)C=O [dimethylformamide] + O=S(=O)([O-])C(F)(F)F.O=S(=O)([O-])C(F)(F)F.[Sr+2]"
measure_unit = "m/s"
experimental_value = 1380.1

[[record]]
compound = "CC(=O)N(C)C [N,N-dimethylethanamide] + O=S(=O)([O-])C(F)(F)F.O=S(=O)([O-])C(F)(F)F.[Ca+2]"
measure_unit = "m/s"
experimental_value = 1376.9

[[record]]
compound = "CN(C)C=O [dimethylformamide] + O=S(=O)([O-])C(F)(F)F.O=S(=O)([O-])C(F)(F)F.[Ca+2]"
measure_unit = "m/s"
experimental_value = 1380

[[record]]
compound = "CC(=O)N(C)C [N,N-dimethylethanamide] + [Ba+2].[O-][Cl+3]([O-])([O-])[O-].[O-][Cl+3]([O-])([O-])[O-]"
measure_unit = "m/s"
experimental_value = 1376.9

[[record]]
compound = "CC(=O)N(C)C [N,N-dimethylethanamide] + O=S(=O)([O-])C(F)(F)F.O=S(=O)([O-])C(F)(F)F.[Mg+2]"
measure_unit = "m/s"
experimental_value = 1376.9

[[record]]
compound = "CN(C)C=O [dimethylformamide] + [Ba+2].[O-][Cl+3]([O-])([O-])[O-].[O-][Cl+3]([O-])([O-])[O-]"
measure_unit = "m/s"
experimental_value = 1380


---

Assay: mn = molality of the nth substance listed, in mol/kg
Settings: 313.15 K; 100 kPa; Liquid; Vibrating tube method; m2 = 0
± gives the expanded uncertainty stated by the source.
metric_name: mass density

[[record]]
molecule = "CN(C)C=O [dimethylformamide] + O=S(=O)([O-])C(F)(F)F.O=S(=O)([O-])C(F)(F)F.[Sr+2]"
experimental_value = "929.56 ± 0.51 kg/m3"

[[record]]
molecule = "CN(C)C=O [dimethylformamide] + O=S(=O)([O-])C(F)(F)F.O=S(=O)([O-])C(F)(F)F.[Ca+2]"
experimental_value = "929.553 ± 0.45 kg/m3"

[[record]]
molecule = "CC(=O)N(C)C [N,N-dimethylethanamide] + O=S(=O)([O-])C(F)(F)F.O=S(=O)([O-])C(F)(F)F.[Mg+2]"
experimental_value = "922.416 ± 0.46 kg/m3"

[[record]]
molecule = "CC(=O)N(C)C [N,N-dimethylethanamide] + [Ba+2].[O-][Cl+3]([O-])([O-])[O-].[O-][Cl+3]([O-])([O-])[O-]"
experimental_value = "922.423 ± 0.54 kg/m3"


---

Experiment: mn = molality of the nth substance listed, in mol/kg
Conditions: 313.15 K; 100 kPa; Liquid; Frequency=3 MHz; Sing-around technique in a fixed-path interferometer; m2 = 0
metric_name: speed of sound (m/s)

[[record]]
compound = "CC(=O)N(C)C [N,N-dimethylethanamide] + O=S(=O)([O-])C(F)(F)F.O=S(=O)([O-])C(F)(F)F.[Mg+2]"
experimental_value = 1396.5

[[record]]
compound = "CC(=O)N(C)C [N,N-dimethylethanamide] + O=S(=O)([O-])C(F)(F)F.O=S(=O)([O-])C(F)(F)F.[Ca+2]"
experimental_value = 1396.5

[[record]]
compound = "CN(C)C=O [dimethylformamide] + O=S(=O)([O-])C(F)(F)F.O=S(=O)([O-])C(F)(F)F.[Mg+2]"
experimental_value = 1399.2

[[record]]
compound = "CC(=O)N(C)C [N,N-dimethylethanamide] + O=S(=O)([O-])C(F)(F)F.O=S(=O)([O-])C(F)(F)F.[Sr+2]"
experimental_value = 1396.5

[[record]]
compound = "CN(C)C=O [dimethylformamide] + [Ba+2].[O-][Cl+3]([O-])([O-])[O-].[O-][Cl+3]([O-])([O-])[O-]"
experimental_value = 1399.2

[[record]]
compound = "CC(=O)N(C)C [N,N-dimethylethanamide] + [Ba+2].[O-][Cl+3]([O-])([O-])[O-].[O-][Cl+3]([O-])([O-])[O-]"
experimental_value = 1396.5

[[record]]
compound = "CN(C)C=O [dimethylformamide] + O=S(=O)([O-])C(F)(F)F.O=S(=O)([O-])C(F)(F)F.[Sr+2]"
experimental_value = 1399.3

[[record]]
compound = "CN(C)C=O [dimethylformamide] + O=S(=O)([O-])C(F)(F)F.O=S(=O)([O-])C(F)(F)F.[Ca+2]"
experimental_value = 1399.2

